# tested.system: PARP1 G558V (UniProt P09874 1-1014, G558V)
# Sequence (P09874 whole entry G558V): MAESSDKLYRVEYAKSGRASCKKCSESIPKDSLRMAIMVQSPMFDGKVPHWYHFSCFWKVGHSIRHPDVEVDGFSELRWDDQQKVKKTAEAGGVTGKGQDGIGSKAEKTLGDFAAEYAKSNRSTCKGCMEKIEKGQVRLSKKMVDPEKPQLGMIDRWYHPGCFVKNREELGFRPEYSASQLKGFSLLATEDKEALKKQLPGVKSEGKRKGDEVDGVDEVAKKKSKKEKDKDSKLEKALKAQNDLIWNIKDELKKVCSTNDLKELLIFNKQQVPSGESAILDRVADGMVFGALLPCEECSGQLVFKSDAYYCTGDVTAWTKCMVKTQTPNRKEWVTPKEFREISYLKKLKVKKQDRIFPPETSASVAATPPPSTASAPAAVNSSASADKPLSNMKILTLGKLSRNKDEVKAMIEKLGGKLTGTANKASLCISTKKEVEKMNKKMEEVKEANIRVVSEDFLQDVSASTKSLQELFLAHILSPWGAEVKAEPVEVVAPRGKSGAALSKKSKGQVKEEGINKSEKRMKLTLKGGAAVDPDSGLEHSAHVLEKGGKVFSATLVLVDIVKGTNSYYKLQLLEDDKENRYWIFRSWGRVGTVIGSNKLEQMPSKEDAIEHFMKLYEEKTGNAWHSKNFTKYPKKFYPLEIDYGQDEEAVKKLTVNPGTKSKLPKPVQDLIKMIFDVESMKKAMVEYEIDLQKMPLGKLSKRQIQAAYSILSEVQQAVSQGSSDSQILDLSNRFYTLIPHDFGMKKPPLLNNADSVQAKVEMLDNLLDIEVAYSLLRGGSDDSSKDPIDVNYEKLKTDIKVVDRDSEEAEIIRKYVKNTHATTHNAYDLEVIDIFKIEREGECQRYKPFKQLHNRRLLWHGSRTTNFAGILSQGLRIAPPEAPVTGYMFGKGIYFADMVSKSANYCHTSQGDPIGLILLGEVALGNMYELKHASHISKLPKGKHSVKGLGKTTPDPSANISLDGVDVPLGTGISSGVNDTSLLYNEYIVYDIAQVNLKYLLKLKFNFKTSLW
# assay.text: fluorescence polarization
readout: Kd (nM)
Answer format: numeric, nM implied, no suffix.

Dear colleague, I am looking for the recorded Kd of the following binder: 18-bp DSB duplex (dsDNA) DNA 1: GGGTTGCGGCCGCTTGGG DNA 2: CCCAAGCGGCCGCAACCC
10.2
